Cited source for all entries: paper PMC5698418

Would you mind telling me the reported Fold-change — Normalized to DMSO control (BDNF) of each entry?
Test system: BDNF-induced nuclear Arc expression in primary cortical neurons
ASSAY REMARKS: Chemogenomic screen: high-content image-based assay of BDNF-induced nuclear Arc expression (96-well)
Type: cell-based, mouse
EXPERIMENTAL PARAMETERS: nuclear Arc-positive cells relative to DMSO + BDNF control; negative values = decrease
Counter-ions that a name gives are not always drawn.
Answers are plain numbers, in fold.

Known results for compounds:
CCOC(=O)c1ncn2c1CN(C)C(=O)c1cc(F)ccc1-2
1.6
O=C([O-])CCCNC(=O)c1cccnc1.[Na+] [Picamilon sodium salt]
1.5
O=C1[C@@H]2[C@H]3CC[C@H](C3)[C@@H]2C(=O)N1C[C@@H]1CCCC[C@H]1CN1CCN(c2nsc3ccccc23)CC1
2.0

Respectfully, I request Fold-change — Normalized to DMSO control (BDNF) for each entry included below.
1. Cc1[nH]c2ccc(Cl)cc2c1C1=CCNCC1
2. O=C(O)c1ccc(O)c2ncccc12

// result
1. 1.2
2. 2.3

Take each entry in turn and give its Fold-change — Normalized to DMSO control (BDNF).
1. C=C[C@@]1(C)CC(=O)[C@]2(O)[C@@]3(C)[C@@H](O)CCC(C)(C)[C@@H]3[C@H](O)[C@H](OC(C)=O)[C@@]2(C)O1
2. Cc1cc(-c2ccccc2)nnc1NCCN1CCOCC1
3. O=C(CCCCCCC(=O)Nc1ccccc1)NO
4. CC(C)CNC(=O)/C=C/C=C/c1ccc2c(c1)OCO2
5. CN(C)CCC[C@@]1(c2ccc(F)cc2)OCc2cc(C#N)ccc21 [Escitalopram oxalate]
6. O=C(Nc1cccc(Br)c1)c1cccc(S(=O)(=O)N2CCCCCC2)c1

// result
[1.5, 1.1, 1.0, 1.2, 1.4, 3.2]
